All values here come from patent EP3628672A1.

Target: LasB (Pseudomonas aeruginosa, UniProt P14756)
Construct: uses as source of enzyme dialysed supernatant from P. aeruginosa PAO1; endogenous in cells; host or cells: P. aeruginosa PAO1 culture supernatant, filtered and dialysed
Sequence (P14756 198-498): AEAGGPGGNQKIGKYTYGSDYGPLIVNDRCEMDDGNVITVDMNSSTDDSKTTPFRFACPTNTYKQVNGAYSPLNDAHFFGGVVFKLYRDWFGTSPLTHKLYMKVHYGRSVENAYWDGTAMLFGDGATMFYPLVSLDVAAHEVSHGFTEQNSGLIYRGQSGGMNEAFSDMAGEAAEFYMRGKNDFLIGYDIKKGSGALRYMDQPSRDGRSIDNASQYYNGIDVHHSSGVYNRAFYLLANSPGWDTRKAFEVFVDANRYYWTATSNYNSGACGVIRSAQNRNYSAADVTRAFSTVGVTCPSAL
Assay: Elastin assay to determine % inhibition (Elastin Congo-Red, dialysed culture supernatant)
Type: biochemical, P. aeruginosa PAO1
Settings: read-out: Elastin hydrolysis % inhibition @ 50 / 25 µM inhibitor concentration
Procedure: Experiments were therefore conducted (1) to measure the potency of inhibition of compounds of the invention against purified Pseudomonas aeruginosa LasB enzyme and also experiments were conducted (2) to measure the ability of compounds of the invention to inhibit LasB-catalysed elastin degradation. […] The Elastin assay uses as source of enzyme dialysed supernatant from P. aeruginosa PAO1 and the Elastin Congo-Red as substrate. […] This red dye release can be measured with a spectrophotometer. […]
Assign inhibition at 25 µM to each entry below.

Task: Please state recorded inhibition at 25 µM (tested on LasB (Pseudomonas aeruginosa, UniProt P14756)) of `CN1CCN(c2cccc(-c3csc(CNC(=O)C4(CC(=O)O)Cc5ccccc5C4)n3)c2)CC1`
Output: 60 to 75%

Task: // next record `CN1CCN(S(=O)(=O)c2cccc(-c3csc(CNC(=O)C4(CC(=O)O)Cc5ccccc5C4)n3)c2)CC1`
Output: > 75%

Task: // next record `CN(C)CCNC(=O)c1ccc(-c2csc(CNC(=O)C3(CC(=O)O)Cc4ccccc4C3)n2)cc1`
Output: 60 to 75%

Task: // next record `COc1cc(OCCCN2CCCC2)ccc1-c1csc(CNC(=O)C2(CC(=O)O)Cc3cc(F)c(F)cc3C2)n1`
Output: 10 to 60%

Task: // next record `CN1CCN(C(=O)COc2ccc(-c3csc(CNC(=O)C4(CC(=O)O)Cc5ccccc5C4)n3)cc2)CC1`
Output: > 75%

Task: // next record `CN(C)C1CN(c2ccc(-c3csc(CNC(=O)C4(CC(=O)O)Cc5ccccc5C4)n3)cn2)C1`
Output: 60 to 75%

Task: // next record `CN1CCN(C(=O)Cn2cc(-c3csc(CNC(=O)C4(CC(=O)O)Cc5ccccc5C4)n3)cn2)CC1`
Output: 60 to 75%

###

target: LasB (Pseudomonas aeruginosa, UniProt P14756); construct: uses as source of enzyme dialysed supernatant from P. aeruginosa PAO1; endogenous in cells; host or cells: P. aeruginosa PAO1 culture supernatant, filtered and dialysed; experiment: Elastin assay to determine % inhibition (Elastin Congo-Red, dialysed culture supernatant); type: biochemical, P. aeruginosa PAO1; conditions: read-out: Elastin hydrolysis % inhibition @ 50 / 25 µM inhibitor concentration
readout_kind: inhibition at 25 µM

Task: # lookup: inhibition at 25 µM of `CN(C)C1CCN(S(=O)(=O)c2cc(-c3csc(CNC(=O)C4(CC(=O)O)Cc5cc(F)c(F)cc5C4)n3)ccc2OCCCN2CCCC2)CC1`
Output: 10 to 60%

Task: // next record `O=C(O)CC1(C(=O)NCc2nc(-c3ccc(OCc4ccncc4)nc3)cs2)Cc2ccccc2C1`
Output: > 75%

Task: // next record `CC(=O)N1CCN(CCCn2cc(-c3csc(CNC(=O)C4(CC(=O)O)Cc5ccccc5C4)n3)cn2)CC1`
Output: 60 to 75%

Task: // next record `O=C(O)CC1(C(=O)NCc2nc(-c3cnn(CCCN4CCOCC4)c3)cs2)Cc2ccccc2C1`
Output: 60 to 75%

Task: // next record `CN1CCN(C(=O)N2CCC(n3cc(-c4csc(CNC(=O)C5(CC(=O)O)Cc6ccccc6C5)n4)cn3)CC2)CC1`
Output: 60 to 75%

Task: // next record `Cn1nccc1-c1csc(CNC(=O)C2(CC(=O)O)Cc3ccccc3C2)n1`
Output: 60 to 75%

Task: // next record `CN1CCN(C(=O)CN2CCC(n3cc(-c4csc(CNC(=O)C5(CC(=O)O)Cc6ccccc6C5)n4)cn3)CC2)CC1`
Output: 60 to 75%

Task: // next record `COc1ccc(-c2csc(CNC(=O)C3(CC(=O)O)Cc4ccccc4C3)n2)cc1C(=O)N1CCC(N(C)C)CC1`
Output: 10 to 60%

Task: // next record `CN1CCN(CCCn2cc(-c3csc(CNC(=O)C4(CC(=O)O)Cc5ccccc5C4)n3)cn2)CC1=O`
Output: 60 to 75%

Task: // next record `O=C([O-])CC1(C(=O)NCc2nc(-c3ccc(OCCC[n+]4ccccc4)cc3)cs2)Cc2ccccc2C1`
Output: 60 to 75%

Task: // next record `CN1CCN(c2ccc(-c3csc(CNC(=O)C4(CC(=O)O)Cc5ccccc5C4)n3)cc2)CC1`
Output: 60 to 75%

Task: // next record `COc1cc(OCCCN(C)C)ccc1-c1csc(CNC(=O)C2(CC(=O)O)Cc3cc(F)c(F)cc3C2)n1`
Output: 60 to 75%

Task: // next record `COc1cc(OCC[N+]2(C)CCOCC2)ccc1-c1csc(CNC(=O)C2(CC(=O)[O-])Cc3cc(F)c(F)cc3C2)n1`
Output: 60 to 75%

Task: // next record `COc1cc(OCCC[N+]2(C)CCOCC2)ccc1-c1csc(CNC(=O)C2(CC(=O)[O-])Cc3cc(F)c(F)cc3C2)n1`
Output: 60 to 75%

Task: // next record `COc1cc(OCCC[N+](C)(C)C)ccc1-c1csc(CNC(=O)C2(CC(=O)[O-])Cc3cc(F)c(F)cc3C2)n1`
Output: 60 to 75%

Task: // next record `COc1ccc(-c2csc(CNC(=O)C3(CC(=O)O)Cc4cc(F)c(F)cc4C3)n2)cc1S(=O)(=O)N1CCC(N(C)C)CC1`
Output: 60 to 75%

Task: // next record `CN(C)C1CCN(S(=O)(=O)c2cc(-c3csc(CNC(=O)C4(CC(=O)O)Cc5cc(F)c(F)cc5C4)n3)ccc2OCCN2CCOCC2)CC1`
Output: 60 to 75%

Task: // next record `O=C(O)CC1(C(=O)NCc2nc(-c3ccncc3)cs2)Cc2ccccc2C1`
Output: 60 to 75%

Task: // next record `COc1cc(OCc2ccncc2)ccc1-c1csc(CNC(=O)C2(CC(=O)O)Cc3ccccc3C2)n1`
Output: > 75%

Task: // next record `C[N+]1(C)CCN(C(=O)COc2ccc(-c3csc(CNC(=O)C4(CC(=O)[O-])Cc5ccccc5C4)n3)cc2)CC1`
Output: 60 to 75%

Task: // next record `CS(=O)(=O)c1cc(-c2csc(CNC(=O)C3(CC(=O)O)Cc4ccccc4C3)n2)ccc1OCCN1CCOCC1`
Output: > 75%

Task: // next record `COc1ccc(S(=O)(=O)N2CCC(N(C)C)CC2)cc1-c1csc(CNC(=O)C2(CC(=O)O)Cc3cc(F)c(F)cc3C2)n1`
Output: 10 to 60%

Task: // next record `CN1CCN(C(=O)COc2cccc(-c3csc(CNC(=O)C4(CC(=O)O)Cc5ccccc5C4)n3)c2)CC1`
Output: 60 to 75%

Task: // next record `COc1cc(OCCN2CCOCC2)ccc1-c1csc(CNC(=O)C2(CC(=O)O)Cc3ccccc3C2)n1`
Output: > 75%

Task: // next record `O=C(O)CC1(C(=O)NCc2nc(-c3cccnc3)cs2)Cc2ccccc2C1`
Output: 60 to 75%

Task: // next record `COc1cc(OCC(=O)N2CCN(C)CC2)ccc1-c1csc(CNC(=O)C2(CC(=O)O)Cc3ccccc3C2)n1`
Output: > 75%

Task: // next record `COc1ccccc1-c1csc(CNC(=O)C2(CC(=O)O)Cc3ccccc3C2)n1`
Output: 60 to 75%

Task: // next record `CN1CCN(C(=O)CN2CCN(c3ccc(-c4csc(CNC(=O)C5(CC(=O)O)Cc6ccccc6C5)n4)cc3)CC2)CC1`
Output: > 75%

Task: // next record `O=C(O)CC1(C(=O)NCc2nc(-c3ccc(OCCN4CCOCC4)cc3)cs2)Cc2ccccc2C1`
Output: 60 to 75%

###

molecular target: purified LasB protein from P. aeruginosa (Pseudomonas aeruginosa); construct: purchased Merck or Charles River Laboratories; assay: Fluorometric assay to determine Ki (Abz-Ala-Gly-Leu-Ala-p-Nitro-Benzyl-Amide substrate); type: biochemical
Sequence (P14756 198-498): as above
pKi: −log10 of the molar value.
Assign pKi to each entry below.

Task: # lookup: pKi of `O=C(O)CC1(C(=O)NCc2nc(-c3ccc(O)cc3)cs2)Cc2ccccc2C1`
Output: 6.70 to 7.30

Task: // next record `C[n+]1ccc(CCCn2cc(-c3csc(CNC(=O)C4(CC(=O)[O-])Cc5ccccc5C4)n3)cn2)cc1`
Output: 5.00 to 6.70

Task: // next record `CN(C)C1CN(c2cccc(-c3csc(CNC(=O)C4(CC(=O)O)Cc5ccccc5C4)n3)c2)C1`
Output: 5.00 to 6.70

Task: // next record `CN1CCN(C(=O)CN2CCN(c3ccc(-c4csc(CNC(=O)C5(CC(=O)O)Cc6ccccc6C5)n4)cc3)CC2)CC1`
Output: > 7.30

Task: // next record `O=C(O)CC1(C(=O)NCc2nc(-c3cccnc3)cs2)Cc2ccccc2C1`
Output: 6.70 to 7.30

Task: // next record `COc1ccc(S(=O)(=O)N2CCC(N(C)C)CC2)cc1-c1csc(CNC(=O)C2(CC(=O)O)Cc3cc(F)c(F)cc3C2)n1`
Output: 6.70 to 7.30

Task: // next record `COc1cc(OCc2cccnc2)ccc1-c1csc(CNC(=O)C2(CC(=O)O)Cc3ccccc3C2)n1`
Output: > 7.30
